All figures here come from patent US5098930A.

target: cyclooxygenase (Homo sapiens); construct: incubating a test compound with heparinised human blood; endogenous in cells; experiment: test b) in vitro heparinised human blood, A23187 challenge, TxB2 radioimmunoassay
Sequence (P23219 24-599): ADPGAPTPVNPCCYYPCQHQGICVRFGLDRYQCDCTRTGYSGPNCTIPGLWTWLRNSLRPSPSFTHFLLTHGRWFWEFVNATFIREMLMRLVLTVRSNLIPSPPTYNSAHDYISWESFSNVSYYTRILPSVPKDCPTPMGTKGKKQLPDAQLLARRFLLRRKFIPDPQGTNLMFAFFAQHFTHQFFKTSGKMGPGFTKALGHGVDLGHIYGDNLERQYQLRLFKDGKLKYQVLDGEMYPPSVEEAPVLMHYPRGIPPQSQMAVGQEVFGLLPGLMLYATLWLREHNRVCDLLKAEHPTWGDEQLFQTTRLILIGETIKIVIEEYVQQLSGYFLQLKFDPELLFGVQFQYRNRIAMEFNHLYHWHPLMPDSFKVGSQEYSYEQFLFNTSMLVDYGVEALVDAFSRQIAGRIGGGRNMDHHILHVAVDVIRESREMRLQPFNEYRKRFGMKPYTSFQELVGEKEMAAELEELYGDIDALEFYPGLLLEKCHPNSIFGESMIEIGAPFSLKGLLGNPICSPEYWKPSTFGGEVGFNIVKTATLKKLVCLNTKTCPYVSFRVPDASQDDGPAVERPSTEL
pIC50: −log10 of the molar value.
Metric name: pIC50

# lookup: pIC50 of COC1(c2cccc(OCc3ccc4ccccc4c3)c2)CCOCC1 < 4.40
